Tested on: CAKI-1 renal
method_summary: NCI tumour cell line growth inhibition, 48 h
Measured TGI of individual entries

Study these solved cases before continuing.
>>> reported_value("[N-]=[N+]=CC(=O)OC1Cc2ccccc2C1")
"> 35.3 µM"
>>> reported_value("COc1cc(/C=C/C(=O)c2cccc(-n3cc(-c4ccc(Cl)cc4)[nH]c3=O)c2)ccc1O")
"44.9 µM"
>>> reported_value("C=CCN(C(=O)CNC(=O)C(F)(F)F)c1cc(OCc2ccccc2)c2c(c1)c(C)cn2S(=O)(=O)c1ccccc1")
"> 100 µM"
>>> reported_value("O=S(=O)(Nc1ccc(Cl)cc1Cl)c1ccc(-c2cnc(C3CC3)o2)cc1")
"55.9 µM"

API: the following record is the query input.
Query block: Return reported TGI; argument: C[Si](C)(C)/C(Br)=C\CCN1C(=O)CCC1=O
Result block: > 100 µM
